Data origin, for the record: paper PMC5815522

Each entry below carries its recorded % survival CD3+ (CD25+).
System: CD3+ (CD25+) cells
Assay type: cell-based, human
Please don't drop the unit; write it after the number.

Known results for compounds:
structure.notation: CN1CCC(C)(C)c2cc3c(-c4ccc(C(=O)N5CCCCC5)s4)c4ccc(=[N+](C)C)cc-4[se]c3cc21.[Cl-]
% survival CD3+ (CD25+): 17.4 ± 1.7%

structure.notation: S=C(c1ccc(C2=c3cc4c5c(c3[Se]c3c2cc2c6c3CCCN6CCC2)CCC[N+]=5CCC4)s1)N1CCCCC1.[Cl-]
% survival CD3+ (CD25+): 4.8 ± 1.0%

structure.notation: CN1CCC(C)(C)c2cc3c(-c4ccc(C(=S)N5CCCCC5)s4)c4ccc(=[N+](C)C)cc-4[se]c3cc21.[Cl-]
% survival CD3+ (CD25+): 9.2 ± 1.0%

structure.notation: CN1CCC(C)(C)c2cc3c(cc21)[Se]c1cc2c(cc1=C3c1ccc(C(=S)N3CCCCC3)s1)C(C)(C)CC[N+]=2C.[Cl-]
% survival CD3+ (CD25+): 7.0 ± 0.7%

structure.notation: CN1CCC(C)(C)c2cc3c(cc21)[Se]c1cc2c(cc1=C3c1ccc(C(=O)N3CCCCC3)s1)C(C)(C)CC[N+]=2C.[Cl-]
% survival CD3+ (CD25+): 12.5 ± 0.4%

Ask: For the compound O=C(c1ccc(C2=c3cc4c5c(c3[Se]c3c2cc2c6c3CCCN6CCC2)CCC[N+]=5CCC4)s1)N1CCCCC1.[Cl-] , give its measured % survival CD3+ (CD25+) value.
Result: 37.4 ± 3.2%

Ask: For the compound C[N+]1=c2cc3c(cc2C(C)(C)CC1)=C(c1ccc(C(=S)N2CCCCC2)s1)c1cc2c4c(c1[Se]3)CCCN4CCC2.[Cl-] , give its measured % survival CD3+ (CD25+) value.
Result: 2.6 ± 0.9%

Ask: For the compound C[N+]1=c2cc3c(cc2C(C)(C)CC1)=C(c1ccc(C(=O)N2CCCCC2)s1)c1cc2c4c(c1[Se]3)CCCN4CCC2.[Cl-] , give its measured % survival CD3+ (CD25+) value.
Result: 5.0 ± 0.9%
